The values you see were collected from the Deep4Chem optical property database.

Experiment: solvent given as SMILES
Settings: in ClCCl
Can you tell me absorption maximum for the items I'm about to list?
Give bare numbers, in nm.

These solved cases illustrate the format of a correct answer.
{"Compound": "Cc1cc2cc(C)c3c4ccccc4[nH]c3c2o1", "Unit Of Measure": "nm", "absorption maximum": 302}
{"Compound": "CCN(CC)c1ccc(/N=N/c2nc3ccc(Br)cc3s2)cc1", "Unit Of Measure": "nm", "absorption maximum": 518}
{"Compound": "O=c1c2cc(Br)ccc2nc2n1[B-](F)(F)[n+]1ccccc1-2", "Unit Of Measure": "nm", "absorption maximum": 358}

# return absorption maximum for each item in the list
1. C[Si]1(C)O[Si](C)(C)c2cc3c(-c4ccccc4)c4ccccc4nc3cc21
2. [O-][n+]1c(/C=C/C=C/c2ccccc2)nc(N2CCOCC2)c2c1CCCC2

## Result
1. 368
2. 400

# return absorption maximum for each item in the list
1. COC(=O)c1cc(=O)n(C)c2cc(-c3ccccc3)sc12
2. ClP1(Cl)=N[P@@](Cl)(Oc2ccc3ccc4cccc5ccc2c3c45)=N[P@@](Cl)(Oc2ccc3ccc4cccc5ccc2c3c45)=N1
3. COc1ccc(C2=Cc3cc4ccccc4cc3P2(=O)c2ccccc2)cc1 (stereo not given)
4. CC(C)(C)c1ccc2c(c1)c1cc(C(C)(C)C)ccc1n2-c1ccc(N(c2ccc(-c3ccc(N(c4ccc(-n5c6ccc(C(C)(C)C)cc6c6cc(C(C)(C)C)ccc65)cc4)c4ccc(-n5c6ccc(C(C)(C)C)cc6c6cc(C(C)(C)C)ccc65)cc4)cc3)cc2)c2ccc(-n3c4ccc(C(C)(C)C)cc4c4cc(C(C)(C)C)ccc43)cc2)cc1
5. C[Si]1(C)c2cc(-c3cccs3)ccc2C=Cc2ccc(-c3cccs3)cc21

## Result
1. 394
2. 343
3. 395
4. 349
5. 408

# return absorption maximum for each item in the list
1. NC1=N/C(=N\c2ccccn2)c2cccc3cccc1c23
2. CCOc1cccc(-c2nc3c(c4c2-c2ccccc2CC4)-c2ccccc2CC3)c1O
3. C(=C\c1cc(/C=C/c2ccccc2)nc(/C=C/c2ccccc2)n1)/c1ccccc1
4. COc1ccc(/C=C/c2ccncn2)cc1
5. Cc1cc(=O)cc(-c2ccc(-c3nc4ccccn4c3NC3CCCCC3)cc2)o1

## Result
[365, 335, 312, 338, 357]

# return absorption maximum for each item in the list
1. CNc1ncc2nc(C#N)n(Cc3ccccc3)c2n1
2. Fc1ccc(C#Cc2nc(C#Cc3ccc(F)cc3)c(C#Cc3ccc(F)cc3)c(C#Cc3ccc(F)cc3)c2C#Cc2ccc(F)cc2)cc1
3. CC(C)(C)c1ccc2c(c1)c1cc(C(C)(C)C)ccc1n2-c1ccc(N(c2ccc(-c3ccc(-c4ccc(-c5ccc(N(c6ccc(-n7c8ccc(C(C)(C)C)cc8c8cc(C(C)(C)C)ccc87)cc6)c6ccc(-n7c8ccc(C(C)(C)C)cc8c8cc(C(C)(C)C)ccc87)cc6)cc5)s4)s3)cc2)c2ccc(-n3c4ccc(C(C)(C)C)cc4c4cc(C(C)(C)C)ccc43)cc2)cc1
4. CCN(CC)c1ccc2c(-c3ccccc3C(=O)O)c3c([o+]c2c1)/C(=C/C=C/c1ccc(N(C)C)cc1)CCC3
5. c1ccc2cc(-c3c4ccccc4c(-c4ccc(-n5c6ccccc6c6ccccc65)cc4)c4ccccc34)ccc2c1
6. Cc1ccc(N(c2ccc(C)cc2)c2ccc3c4cccc5c(N(c6ccc(C)cc6)c6ccc(C)cc6)ccc(c6cccc2c63)c54)cc1

## Result
341
407
418
749
377
473

# return absorption maximum for each item in the list
1. CN(C)c1ccc(/C=C/c2cnc3ccccc3n2)cc1
2. CCCCCCCCCCOc1ccc(C#Cc2ccc(C#Cc3ccc(OCCCCCCCCCC)c(OCCCCCCCCCC)c3)c3nc4c5ccccc5c5ccccc5c4nc23)cc1OCCCCCCCCCC

## Result
1: 427; 2: 461

# return absorption maximum for each item in the list
1. CCCCn1c2ccccc2c2cc(C#Cc3ccc4ccc5cccc6ccc3c4c56)ccc21
2. C[SiH]1c2ccccc2-c2cc3c(cc21)-c1ccccc1[SiH]3C (stereo not given)
3. COC(=O)c1cc(=O)n(C)c2cc(-c3cccc(OC)c3)sc12
4. N#Cc1nc2c(nc1C#N)C1c3ccc(N(c4ccccc4)c4ccccc4)cc3C2c2ccc(N(c3ccccc3)c3ccccc3)cc21
5. CCCCC(CC)Cn1c2ccc(C(=C(C#N)C#N)c3ccccc3)cc2c2c(-c3ccc(Br)cc3)c3c(c(-c4ccc(Br)cc4)c21)c1cc(C(=C(C#N)C#N)c2ccccc2)ccc1n3CC(CC)CCCC (stereo not given)
6. COc1ccc(-c2cnc(-c3ccccc3)o2)cc1OC
7. Cc1ccc(C2=Nc3cccc4[n+]3[B-](c3ccccc3)(N2)NC(c2ccc(C)cc2)=N4)cc1
8. CCCCCCc1cc2c(=S)c3cc(CCCCCC)cc4c(=S)c5cc(CCCCCC)cc6c(=S)c(c1)c2n(c34)c65

## Result
1: 402; 2: 324; 3: 394; 4: 409; 5: 471; 6: 322; 7: 435; 8: 572

# return absorption maximum for each item in the list
1. Brc1cc2nc3cc4c5c(cccc5c3nc2cc1Br)C(c1ccccc1)=C(c1ccccc1)O4
2. Cc1cc(O)c(C(C)C)cc1/N=C/c1ccc(O)cc1
3. F[B-]1(F)n2c(nc3c4ccccc4c4ccccc4c32)-c2cccc[n+]21
4. CCCCCCc1ccsc1-c1ccc(-c2sc(C(=O)O)cc2CCCCCC)s1

## Result
1. 518
2. 335
3. 421
4. 364
